- Test system: Pseudoperonospora cubensis
- assay name: Fungicidal activity against Pseudoperonospora cubensis infected in cucumber cv. Sagamihanjiro seedling assessed as reduction in leaf lesion after 4 days by pot test
- Assay type: functional, organism-based
Rule for this label: Yes means EC50 is less than 30 ppm; No means EC50 is at least 30 ppm.

smiles	class label
Cn1s/c(=N/c2ccc(Cl)cc2)nc1-c1ccccc1	Yes

# input for lookup
q: Does Clc1ccc(/N=c2\nc(-c3ccc(Cl)cc3)n(Cc3ccccc3)s2)cc1 have EC50 strictly under 30 ppm?
a: No

====

- System: Pseudoperonospora cubensis
- assay name: Fungicidal activity against Pseudoperonospora cubensis infected in cucumber cv. Sagamihanjiro seedling assessed as reduction in leaf lesion after 4 days by pot test
- Assay type: functional, organism-based
metric name: EC50 (ppm)
Give just the numeric value; ppm need not be written.

Worked examples, 3 compounds total:
smiles	EC50 / ppm
CCn1s/c(=N/c2ccc(Cl)cc2)nc1-c1ccc(Cl)cc1	80.4
CCSc1n/c(=N\c2ccc(Cl)cc2)sn1C	36.2
Cn1s/c(=N/c2ccc(O)cc2)nc1-c1ccccc1	39.6

q: Determine its reported EC50: Cn1s/c(=N/c2ccc(I)cc2)nc1-c1ccccc1
a: 100

q: Determine its reported EC50: C/N=C(/N=c1\sn(-c2ccccc2)c(=S)n1-c1ccc(Cl)cc1)c1ccccc1
a: 33.6

====

- System: Pseudoperonospora cubensis
- assay name: Fungicidal activity against Pseudoperonospora cubensis infected in cucumber cv. Sagamihanjiro seedling assessed as reduction in leaf lesion after 4 days by pot test
- Format: functional, organism-based
metric name: log10 EC50 (log10 of the value in ppm)
Hello, just confirming the data are log10 of EC50 with units of ppm.

q: Determine its reported log10 EC50: Cn1s/c(=N/c2ccccc2)nc1-c1ccccc1
a: 1.66

q: Determine its reported log10 EC50: Cn1s/c(=N/c2ccc(Oc3ccc(Cl)cc3)cc2)nc1-c1ccccc1
a: 1.50

q: Determine its reported log10 EC50: Cc1ccc(-c2n/c(=N\c3ccc(Cl)cc3)sn2C)cc1
a: 1.57

q: Determine its reported log10 EC50: CCCc1ccc(/N=c2\nc(-c3ccc(Cl)cc3)n(C)s2)cc1
a: 1.38

q: Determine its reported log10 EC50: Cc1cccc(/N=c2\nc(-c3ccc(Cl)cc3)n(C)s2)c1C
a: 1.40

q: Determine its reported log10 EC50: Cn1s/c(=N/c2ccc(Cl)cc2)nc1-c1cc(Cl)cc(Cl)c1
a: 1.82

q: Determine its reported log10 EC50: Cn1s/c(=N/c2ccc(Cl)cc2)nc1-c1ccc([N+](=O)[O-])cc1
a: 1.47

q: Determine its reported log10 EC50: CCn1s/c(=N/c2ccc(Cl)cc2)nc1-c1ccccc1
a: 1.13

q: Determine its reported log10 EC50: Cn1s/c(=N/c2ccc(Cl)cc2)nc1-c1ccc(Cl)cc1
a: 0.86

q: Determine its reported log10 EC50: CN(C)C(=O)n1s/c(=N/c2ccc(Cl)cc2)nc1-c1ccccc1
a: 1.94

q: Determine its reported log10 EC50: Cn1s/c(=N/C(=O)c2ccc(Cl)cc2)nc1-c1ccc(Cl)cc1
a: 2.60

====

- Tested on: Pseudoperonospora cubensis
- assay name: Fungicidal activity against Pseudoperonospora cubensis infected in cucumber cv. Sagamihanjiro seedling assessed as reduction in leaf lesion after 4 days by pot test
- Assay type: functional, organism-based
// log10 of EC50 lookup, one value per entry
Hello, just confirming the data are log10 of EC50 with units of ppm.

Worked examples, 10 compounds total:
compound	log10 of EC50
C/N=C(/N=c1\ssc(=S)n1-c1ccc(Cl)cc1)c1ccccc1	1.92
CCn1s/c(=N/c2cc(Cl)cc(Cl)c2)nc1-c1ccc(Cl)cc1	1.94
CCc1ccc(/N=c2\nc(-c3ccc(Cl)cc3)n(C)s2)cc1	1.34
Cc1ccc(/N=c2\nc(-c3ccc(Cl)cc3)n(C)s2)cc1C	1.12
Cn1s/c(=N/c2ccc(Cl)cc2Cl)nc1-c1ccccc1	1.80
CC(C)n1s/c(=N/c2ccc(Cl)cc2)nc1-c1ccccc1	1.86
CCCn1s/c(=N/c2ccc(Cl)cc2)nc1-c1ccccc1	1.00
CC(C)c1n/c(=N\c2ccc(Cl)cc2)sn1C	2.40
Cn1s/c(=N/c2ccc(Cl)cc2)nc1-c1cccc(Cl)c1	1.40
Cn1s/c(=N/c2ccc(F)cc2)nc1-c1ccc(Cl)cc1	1.34

q: Determine its reported log10 of EC50: Cn1s/c(=N/c2ccc(-c3ccccc3)cc2)nc1-c1ccccc1
a: 1.36

q: Determine its reported log10 of EC50: CN(C)c1n/c(=N\c2ccc(Cl)cc2)sn1C
a: 1.72

q: Determine its reported log10 of EC50: Cn1s/c(=N/c2cccc(Cl)c2Cl)nc1-c1ccc(Cl)cc1
a: 2.25

Just for reference, ChEMBL document CHEMBL3045379 is where these values come from.
